# test-summary: BET inhibitor-based combinations targeting novel dependencies in MECOM-rearranged (r) AML: SET-2 cell line (AID 2202231); further: potency means the concentration at half of the fitted maximal effect; nearly all actives have a fitted effect of over 35% in size
# setup-conditions: SET-2 AML cells viability, CellTiter-Glo luminescence, 48 h
Records with an inconclusive call do not appear. Active and inactive are the calls of the source. The call rests on the fitted dose curve; in most records, active means well fitted inhibition curve with a large enough effect; inconclusive means small, poorly fitted or top-dose-only effect; inactive means no such curve, though single readings can be large or run the other way.
Below, each of the compounds is paired with its reported Potency value.

Some compounds with known Potency results, for comparison:
Q: I'd like to know its Potency. The compound in question is CCS(=O)(=O)Nc1ccc(Oc2ccc(F)cc2F)c(-c2cn(C)c(=O)c3[nH]ccc23)c1
A: 0.0525 µM (active)

Q: Now this one: CN1CCCN(C(=O)c2cccc(-c3ccc(/C=C4/C(=O)Nc5ccc(Cl)cc54)o3)c2)CC1
A: 20.9 µM (active)

Q: How about this compound: Nc1cc(COc2c(Cl)cc(C[C@H](N)C(=O)O)cc2Cl)c2oc(-c3ccccc3)nc2c1
A: 11.8 µM (active)

Q: Also need CCOC(=O)C1=CCCCC1S(=O)(=O)Nc1ccc(F)cc1Cl (stereo not given) , thanks.
A: 20.9 µM (active)

Q: # iterate: CN(C)N=Nc1nc[nH]c1C(N)=O
A: 16.6 µM (active)

Q: Entry to check: O=C(NO)c1cnc(NC2(c3cccc(F)c3)CCCCC2)nc1
A: 9.34 µM (active)

New cases:
Q: Give its Potency value. Item: N#Cc1cccnc1N1CCN(C(=O)c2cccc(Cc3n[nH]c(=O)c4ccccc34)c2)CC1
A: 0.296 µM (active)

Q: Moving on to Cc1ccc(S(=O)(=O)Nc2cc(C(F)(F)F)ccc2C(=O)Nc2nc(-c3ccccc3)cs2)cc1
A: 14.8 µM (active)

Q: Then what about the compound CN(C)CCCN=c1c2ccccc2n(C)c2[nH]c(=O)n(C)c(=O)c12 ?
A: 23.5 µM (active)

Q: # iterate: CN(CCO)C1CCN(c2ccc(Nc3ncc4c5ccnc(F)c5n(C5CCCC5)c4n3)nc2)CC1
A: 2.04 µM (active)

Q: Another compound: O=C(NOCCO)c1ccc2cncn2c1Nc1ccc(I)cc1F
A: 18.6 µM (active)

Q: Note, next up: CCCCNc1ncc2c(-c3ccc(F)cc3)nn(CC3CCC(N)CC3)c2n1 (stereo not given)
A: 14.4 µM (active)

----------
# target-desc: Retinal dehydrogenase 2 (Homo sapiens)
# test-summary: qHTS for Inhibitors of the Aldehyde Dehydrogenase Family (ALDH1A2) Confirmation screens (AID 2061314); further: nearly all actives have a fitted effect of over 65% in size
# setup-conditions: ALDH1A2 enzyme inhibition qHTS confirmation; series mostly up to 45.9 µM
Records with an inconclusive call do not appear. Active and inactive are the calls of the source. The call rests on the fitted dose curve; in most records, active means well fitted inhibition curve with a large enough effect; inconclusive means small, poorly fitted or top-dose-only effect; inactive means no such curve, though single readings can be large or run the other way.
Answer with one of the outcomes yes (active), no (inactive)

As a guide, the following entries are already answered.
Q: Call for entry O=C(NCC(=O)N1CCOCC1)c1ccc(-c2cnc3ccccc3c2)cc1 :
A: no

Q: Now consider COc1ccc(C2=Nn3c(nnc3-c3cccc(OC)c3OC)SC2)c(OC)c1 .
A: no

Q: Follow-up entry: Cc1ccc(CN(C(=O)COc2ccc([N+](=O)[O-])cc2)c2ccccn2)cc1
A: no

Continuing:
Q: What call does the record list for Cc1ccnc(NC(=S)N2CCNCC2)c1 ?
A: no

Q: Again, but for COC(=O)c1ccc(O)c2ncc(N3CC[C@H](N)C3)cc12
A: no

Q: Also Cc1c(C(=O)OCC2CC2)[nH]c2c1C(=O)CC(c1ccco1)C2 (stereo not given) , if possible.
A: yes

----------
# target-desc: Retinaldehyde dehydrogenase 3 (Homo sapiens) (UniProt P47895)
# test-summary: qHTS for Inhibitors of the Aldehyde Dehydrogenase Family (ALDH1A3) Confirmatory screens (AID 2061311); further: nearly all actives have a fitted effect of over 60% in size
# setup-conditions: ALDH inhibition qHTS; series mostly up to 46 µM
Results filed as inconclusive are left out. The source made the active and inactive calls. The call rests on the fitted dose curve; in most records, active means well fitted inhibition curve with a large enough effect; inconclusive means small, poorly fitted or top-dose-only effect; inactive means no such curve, though single readings can be large or run the other way.
Field 'call' accepts 1 (yes) for active, 0 (no) for inactive

Solved cases (5 shown):
Q: What did the test return for c1cnc(-c2noc(-c3nc(-c4ccc5c(c4)OCO5)no3)n2)cn1 ?
A: 0 (no)

Q: // repeat for COc1cccc(CNc2ccc(S(=O)(=O)Nc3ccc(N4CCNCC4)nc3)cc2)c1O and report
A: 1 (yes)

Q: One more compound: Oc1ccc(Nc2ccccc2F)c2cccnc12
A: 1 (yes)

Q: Now give it for CN(C)c1ccc(-c2cc[nH]c(=O)c2N)cc1 too.
A: 1 (yes)

Q: Entry Cc1ccc(S(=O)(=O)Nc2cccc3ccc[n+](C)c23)cc1 please
A: 1 (yes)

Read the next record carefully.
Q: Hello, I am checking results. What call was entered for Cc1cc(NC(=O)Nc2nnc(-c3ccncc3)s2)ccc1Br ?
A: 0 (no)

----------
# test-summary: BET inhibitor-based combinations targeting novel dependencies in MECOM-rearranged (r) AML: HNT-34 cell line (AID 2202234); further: nearly all actives have a fitted effect of over 35% in size
# setup-conditions: HNT-34 AML viability, CellTiter-Glo luminescence, 48 h; series mostly up to 46 µM
Records with an inconclusive call do not appear. Activity calls are given as the source filed them. The call rests on the fitted dose curve; in most records, active means well fitted inhibition curve with a large enough effect; inconclusive means small, poorly fitted or top-dose-only effect; inactive means no such curve, though single readings can be large or run the other way.
Returns: one label drawn from active, inactive

The following molecules have reported results that may help.
Q: Which result was noted for this molecule in the test: CC(c1cc2ccccc2s1)N(O)C(N)=O (centres undefined)
A: inactive

Q: Thanks! And Cc1ccc(C(=O)N(CCCN)[C@@H](c2oc3cc(Cl)ccc3c(=O)c2Cc2ccccc2)C(C)C)cc1 ?
A: active

Further cases:
Q: Answer briefly: the call reported for NCC(=O)Nc1cncc(-c2nn3c(=O)cc(N4CCNCC4)nc3s2)c1 in this assay.
A: inactive

Q: Another molecule to check: CCC(=C/[C@H](C)C/C=C/C(C)=C/[C@@H](C)C(=O)[C@@H](C)[C@H](O)[C@@H](C)C/C(C)=C/C(=O)O)/C=C/[C@@H]1OC(=O)C=C[C@@H]1C
A: active

----------
# target-desc: Retinaldehyde dehydrogenase 3 (Homo sapiens) (UniProt P47895)
# test-summary: qHTS for Inhibitors of the Aldehyde Dehydrogenase Family (ALDH1A3) Primary screen (AID 2061315);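 further: plate controls were DMSO vehicle for no effect and reference inhibitor for full effect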
# setup-conditions: ALDH inhibition qHTS; series mostly up to 56 µM
Inconclusive results are not listed. The source made the active and inactive calls. Calls follow the shape of the dose curve; as a rule, active = well fitted inhibition curve with a large enough effect; inconclusive = small, poorly fitted or top-dose-only effect; inactive = no such curve, though single readings can be large or run the other way.
attribute-measured: activity change, negative = inhibition

Known activity change, negative = inhibition results, listed for orientation:
Q: Quick check: activity change, negative = inhibition of Cc1noc(C)c1-c1ccc2ncnc(NCc3ccccc3C(F)(F)F)c2c1 ?
A: inactive

Q: Can you check O=C1CCc2cc(S(=O)(=O)Nc3ccc(-c4ccccc4)cc3)ccc2N1 next?
A: inactive

Q: Field entry: COc1c(NS(=O)(=O)c2ccc(C)cc2)cccc1C(=O)Nc1nc(-c2ccccc2)cs1
A: inactive

Q: Now the same for O=C([C@@H]1CCCN(c2ccc3[nH]c(C4(n5cc(Cl)cn5)CC4)nc3n2)C1)N1CCCC1
A: inactive

Q: Another: O=C1Nc2ccccc2/C1=C\c1cc(Br)c(O)c(Br)c1
A: inactive

Q: // query: O=C(NCc1ccccc1)C1CCN(c2nc(-c3ccc(Br)cc3)cs2)CC1
A: inactive

Q: Now try O=C(NC1CCCc2c1cnn2-c1ccc(F)cc1F)c1ccn[nH]1 (stereo not given) .
A: inactive

Q: Same question for C=CC(C)(C)c1[nH]c2ccccc2c1C[C@@H]1NC(=O)[C@H](C)NC1=O please.
A: inactive

Next:
Q: Recorded activity change, negative = inhibition of O=C(Nc1ccc(Cl)c(Cl)c1)Nc1ncc(-c2ccncc2)s1 , please.
A: inactive

Q: Next up: COc1ccc(C2c3c(N)nc(Cc4ccccc4)nc3Oc3ccc4ccccc4c32)cc1OC (stereo not given)
A: inactive

----------
# target-desc: Retinaldehyde dehydrogenase 3 (Homo sapiens) (UniProt P47895)
# test-summary: qHTS for Inhibitors of the Aldehyde Dehydrogenase Family (ALDH1A3) Validation screen (AID 2061312); further: nearly all actives have a fitted effect of over 45% in size
# setup-conditions: ALDH1A3 enzyme inhibition qHTS validation, fluorescence; series mostly up to 84.7 µM
Inconclusive results are not listed. Activity calls are given as the source filed them. Calls come from the whole dose curve; as a rule, active = well fitted inhibition curve with a large enough effect; inconclusive = small, poorly fitted or top-dose-only effect; inactive = no such curve, though single readings can be large or run the other way.
// one of yes (1) = active, no (0) = inactive, no free text

Use these answered entries as a reference point.
Q: Recorded test call requested for COc1ccc(NS(=O)(=O)c2sc3ccc(Cl)cc3c2C)cc1N1CCNCC1
A: no (0)

Q: Please do the same for O=C1Cc2c([nH]c3ccc(Br)cc23)-c2ncccc2N1 as well.
A: no (0)

Q: Also O=C(c1ccc(Cl)c([N+](=O)[O-])c1)N1CCN(c2ccccc2F)CC1 , if possible.
A: no (0)

Continuing:
Q: I'd appreciate the recorded outcome for CCOC(=O)Nc1nc2ccccc2[nH]1 from this test.
A: no (0)

Q: Now give it for CCN(Cc1ccccc1)C(=O)Cn1c(=O)n(C)c2cnc(-c3ccccc3)nc21 too.
A: no (0)

----------
# test-summary: qHTS for Inhibitors of the Aldehyde Dehydrogenase Family (ALDH1A2, ALDH1A3, ALDH2, ALDH3A1) (AID 2061307); further: nearly all actives have a fitted effect of over 50% in size; on Potency: test system not described further here; potency means the concentration at half of the fitted maximal effect
# setup-conditions: ALDH inhibition qHTS; series mostly up to 50.3 µM
Records with an inconclusive call do not appear. Calls of active or inactive are those of the source. Calls follow the shape of the dose curve; as a rule, active = well fitted inhibition curve with a large enough effect; inconclusive = small, poorly fitted or top-dose-only effect; inactive = no such curve, though single readings can be large or run the other way.
attribute-measured: Potency

Some entries whose results are on file:
Q: Recorded Potency for Cc1ccc(C)n1-c1cccc(C(=O)O)c1 , please?
A: 5.65 µM (active)

Q: Now consider COc1ccc(C2Nc3ccccc3C(=O)N2CCCN(C)C)cc1COc1ccc(NC(C)=O)cc1 (stereo unspecified) .
A: 7.12 µM (active)

Q: Here is the next compound: COc1ccc2nc(-c3cnn(Cc4ccccc4)c3)sc2c1
A: inactive

Q: Same again, this time with O=C(c1ccco1)N1CCN(Cc2nc3ccccc3c(=O)n2-c2ccccc2C(F)(F)F)CC1
A: inactive

Q: What about this compound? Cc1c(P(=S)(c2ccccc2)c2ccccc2)[n+]2ccccc2n1C/C=C/c1ccc(Cl)cc1
A: inactive

Turning now to a further record.
Q: Requested field: Potency. Item: N#Cc1nc(Nc2ccc3ccccc3c2)nc(NC2CCCC2)n1
A: inactive
